- Test system: T47D
- test-summary: NCI tumour cell line growth inhibition, 48 h
Calls of active or inactive are those of the source. No stated cut-off is given here; in the data, active = GI50 up to about 1.1 µM and inactive = higher.
quantity-measured: GI50

API: value(readout= GI50, system= T47D, query= "CCc1n[nH]c(=O)[nH]1" ) > 100 µM (inactive)

Now consider "CCN(CC)/C(Cl)=C(Cl)\C(=C1\Nc2ccc(OC)cc21)[N+](=O)[O-]" . 24.6 µM (inactive)

====

- Tested on: SK-MEL-2
- test-summary: NCI tumour cell line growth inhibition, 48 h
The source made the active and inactive calls. Cut-off read from the data, not from the text of the source: active = GI50 up to about 1.1 µM and inactive = higher.
Please state which outcome applies, choosing from label 1 (active), label 0 (inactive)

Some solved cases for reference:
[
  {
    "compound": "COC(=O)C1=C(C(=O)OC)C2C=CC1C1C(Cl)=C(Cl)C21 (centres undefined)",
    "label-class": "label 0"
  },
  {
    "compound": "COC(=O)[C@@]1(O)CC(C)C=C1C=O (some centres undefined)",
    "label-class": "label 0"
  },
  {
    "compound": "CCc1cccc(CC)c1NC(=S)NC(=O)c1ccc(Br)cc1",
    "label-class": "label 0"
  },
  {
    "compound": "O=C/C=C/c1ccco1",
    "label-class": "label 0"
  },
  {
    "compound": "Cc1cc(S(=O)(=O)O)ccc1/N=N/c1ccc(/N=N/c2c(O)ccc3ccccc23)c(C)c1",
    "label-class": "label 0"
  },
  {
    "compound": "O=C(N/C(=C\\c1ccc(F)cc1)c1nc2ccccc2[nH]1)c1ccccc1",
    "label-class": "label 0"
  },
  {
    "compound": "CCOc1ccc(/N=C\\c2cc(OC)c(OC)c(OC)c2)cc1",
    "label-class": "label 0"
  },
  {
    "compound": "COc1ccc2cc(C(=O)NCCc3ccccc3)ccc2c1OC",
    "label-class": "label 0"
  },
  {
    "compound": "COc1ccc(-c2cc(=O)c3c(OC)c(OC)c(OC)c(OC)c3o2)cc1",
    "label-class": "label 0"
  },
  {
    "compound": "[O-][S+]1Nc2cccc(C(F)(F)F)c2S1 (centres undefined)",
    "label-class": "label 0"
  }
]

Per the records of this test, what outcome belongs to "COc1cc(/C=C2\N=C(c3ccccc3)N(/N=C/c3cc4cc(C)ccc4nc3Cl)C2=O)cc(OC)c1OC" ? label 0

Now consider "CC(=O)ON(C(C)=O)c1ccc(-c2nc3ccccc3s2)cc1" . label 0

Reference for the values: ChEMBL document CHEMBL1201862
